target-or-system: VEGF-165 (Homo sapiens, UniProt P15692-4 P15692-4:27-191)
Sequence (P15692 other isoform, or with tags, fused parts or gaps): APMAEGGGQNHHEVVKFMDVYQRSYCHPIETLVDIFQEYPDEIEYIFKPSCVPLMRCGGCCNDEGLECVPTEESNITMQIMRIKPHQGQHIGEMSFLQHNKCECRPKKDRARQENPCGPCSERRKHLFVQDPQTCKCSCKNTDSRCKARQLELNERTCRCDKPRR
experiment: SPR; 25 C
condition-info: tags: PeproTech; chain copies: 2 (dimer, concentrations stated in terms of dimer)
measured-metric: pKd
pKd here: minus log base 10 of the concentration, concentration in moles per litre.

Ask: Find the recorded pKd belonging to VG20A-57 (ssDNA) DNA: TCAGTCCACGGTAAACTGAGTCCGAAGGGGCATGCAGTGAACCCGAATGGGTCCGG and report it.
Result: 9.66
